measurement-description: SK-BR-3 proliferation inhibitors, primary screen, cell-based, human, 24 h (AID 847);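 further: 100% = median untreated cell wells and 0% = median positive control drug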
condition-set: SK-BR-3 viability, CellTiter-Glo ATP luminescence, at 10 µM, hits give low values
About 190 (0.46%) of roughly 41,000 compounds were called active. The full list was thinned out, with actives kept by preference.
endpoint: viability (%)
Field format: number, assumed %, no unit text.

The recorded viability for entry `N=c1c2c3c(sc2ncn1N)CCCCC3` equals 86

The recorded viability for entry O=C(Cc1cccs1)N1CCCC(c2nc(-c3ccc(S(=O)(=O)N4CCCC4)cc3)no2)C1 (centres undefined) equals 72.5

The recorded viability for entry `CCOc1ccccc1N(CC(=O)Nc1ccccc1C(=O)OC)S(C)(=O)=O` equals 114

The recorded viability for entry `Cc1cc(C)n2nc(C(=O)Oc3ccc4c(c3)OCO4)nc2n1` equals 86.1

The recorded viability for entry Cc1nc2nc3c(cn2n1)C(=O)CC(c1ccccc1)C3 (centres undefined) equals 109

The recorded viability for entry `CC(C)=C(NC(=O)c1ccco1)C(=O)NCCc1nc2ccccc2[nH]1` equals 122

The recorded viability for entry `CCc1nnc(NC(=O)CSc2nnc(COc3ccc(C#N)cc3)n2-c2ccccc2)s1` equals 86

The recorded viability for entry OC(COc1ccccc1)Cn1cc(Br)cn1 (centres undefined) equals 74.7

The recorded viability for entry `O=C(O)c1ccc(F)c(S(=O)(=O)Nc2ccccc2)c1` equals 99.6

The recorded viability for entry `CCOC(=O)Cc1csc(NC(=O)C(C)(C)C)n1` equals 89.5

The recorded viability for entry `COc1ccc2[nH]c3ccc(OC)cc3c2c1` equals 89.2

The recorded viability for entry `O=C1CCC(=O)N1CCOP1(=O)COc2ccccc2OC1` equals 98.7

The recorded viability for entry Cc1ccc(N(CC(O)CN2CCCC2)S(=O)(=O)c2ccccc2)cc1 (centres undefined) equals 84.9

The recorded viability for entry `O=C(Nc1c(C(=O)N2CCCCC2)cnn1-c1ccccc1)c1ccco1` equals 81.5

The recorded viability for entry `O=C(c1cccs1)N1CCN(C(=O)N2CCOCC2)CC1` equals 119

The recorded viability for entry `CCOC(=O)Cc1csc(NC(=O)Nc2ccccc2)n1` equals 111

The recorded viability for entry c1ccc2c(NCC3CCCO3)nc(-c3ccncc3)nc2c1 (centres undefined) equals 101

The recorded viability for entry `O=C(COC(=O)c1ccc2c(c1)OCCO2)NCc1ccccc1` equals 91.5

The recorded viability for entry `CCN(CC)C(=O)CSc1nnc(-c2cnccn2)n1-c1ccc(C)cc1` equals 112

The recorded viability for entry `Cc1nc2cc(-c3ccc(F)cc3)nn2c(N2CCOCC2)c1C` equals 89.5

The recorded viability for entry CC(c1ccccc1)n1c(NCCCn2ccnc2)nc2c1c(=O)[nH]c(=O)n2C (centres undefined) equals 62.8

The recorded viability for entry `CCn1nc(NC(=O)c2ccco2)c2cc3ccc(C)cc3nc21` equals 79.8

The recorded viability for entry `COC(=O)C1(S(=O)(=O)C2(C(=O)OC)CCCC2)CCCC1` equals 105

The recorded viability for entry `O=C(NC1CCCC1)c1ccc(Br)s1` equals 90.4
